abundance fitness: recorded values
B1: SH3 and PX domain-containing protein 2B, residues 155 to 209; numbered along this chain, A1X283 (parent)
chain: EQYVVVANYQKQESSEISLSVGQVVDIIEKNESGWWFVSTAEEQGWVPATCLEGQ

Variants of: B1
Assay: abundance fitness (aPCA) (normalised: wild type 0, dead -1); higher = more abundant; growth selection in yeast, the domain comes from the species named
Details: Homo sapiens

EQYVVVANYQKQESSEISLSVGQVVDIIEKNESGWWFVSCAEEQGWVPATCLEGQ	-0.201
EQYVVVANYQKQESSEISLSVGQVVDIIEKNESGWWFVSTAGEQGWVPATCLEGQ	-0.037
EQYVVVANYQKQESSEISLSVGQVVDIIEKNESGWFFVSTAEEQGWVPATCLEGQ	0.083
EQYVVVANYQKQESSEISLSVGQVVDIIEKNESGWWFVSTAEEQGWVPPTCLEGQ	-0.105
EQYVVVAAYQKQESSEISLSVGQVVDIIEKNESGWWFVSTAEEQGWVPATCLEGQ	0.093

Name the reported abundance fitness value associated with the variant EQYVVVANYDKQESSEISLSVGQVVDIIEKNESGWWFVSTAEEQGWVPATCLEGQ -0.266

Next variant: EQYVVVANYQKQESSEISMSVGQVVDIIEKNESGWWFVSTAEEQGWVPATCLEGQ -0.545

Next variant: EQYVVVANYQLQESSEISLSVGQVVDIIEKNESGWWFVSTAEEQGWVPATCLEGQ -0.433

Next variant: EQYVVVANYQKQESSEISLSVGQVVDIIEKNESGWVFVSTAEEQGWVPATCLEGQ 0.009
